Please respond with reported DPPH radicals scavenged for every item in the list.
# runDescription: DPPH radical scavenger assay (cell-free)
# experimentalConditions: 100 µM
# Protocol: DPPH radical scavenging activity of compounds was tested as described. Compounds were dissolved in MeOH, and the solutions (160 µL) were dispensed into wells of a 96-well microplate. In all, 40 µL of the DPPH (Sigma-Aldrich, Steinheim, Germany) solution in MeOH (1.5 × 10^−4 M) was added to each well. […] The mixture was shaken and left to stand for 30 min, and the absorbance of the resulting solution was measured at 520 nm with a microplate reader MultiscanFC (ThermoScientific, Waltham, MA, USA). […]
Quick note: number first, unit second.

CC(=O)NCC(=O)c1c[nH]c2cc(O)ccc12 [Compound 1, 6-hydroxy-N-acetyl-β-oxotryptamine]    48%

Give me DPPH radicals scavenged for each of these compounds, listed below.
1. COc1c(-c2ccc(O)cc2)cc(OC)c2c1oc1cc(O)c(O)cc12
2. COc1c(-c2ccccc2)cc(OC)c2c1oc1cc(O)c(O)cc12 [Compound 5, 4″-dehydroxycandidusin A]

### Response
32%
49%

Record DPPH radicals scavenged for all entries; do not skip any.
1. Cc1cc(O)c(C)c(O)c1C(=O)O
2. CN1C(=O)C(Cc2c(O)cccc2O)NC(=O)C1Cc1ccccc1 (centres unmarked) [Compound 6, mactanamide]

### Response
10%
15%

* * *

# runDescription: Cell viability (cytotoxicity) assay, MTT
# Format: cell-based
# experimentalConditions: mouse, Neuro2a neuroblastoma cells; Neuro2a cells, 24 h, MTT
# Protocol: The neuroblastoma cell line Neuro2a was purchased from ATCC. Cells were cultured in DMEM medium containing 10% fetal bovine serum (Biolot, St. Petersburg, Russia) and 1% penicillin/streptomycin (Invitrogen, Carlsbad, CA, USA). Cells were incubated at 37 °C in a humidified atmosphere containing 5% (v/v) CO2. Cell suspension (1 × 10^3 cells/well) was incubated with different concentration of compounds for 24 h. […]
experimentalReadout: IC50 at 24 h

// below: answered molecules
COc1c(-c2ccccc2)cc(OC)c2c1oc1cc(O)c(O)cc12 [Compound 5, 4″-dehydroxycandidusin A]    78.9 µM
Cc1cc(O)c(C)c(O)c1C(=O)O [Compound 2, 3-methylorsellinic acid]    > 100 µM

Batch lookup, IC50 at 24 h per entry.
1. CC(=O)NCC(=O)c1c[nH]c2cc(O)ccc12 [Compound 1, 6-hydroxy-N-acetyl-β-oxotryptamine]
2. COc1c(-c2ccc(O)cc2)cc(OC)c2c1oc1cc(O)c(O)cc12 [Compound 4, candidusin A]
3. CN1C(=O)C(Cc2c(O)cccc2O)NC(=O)C1Cc1ccccc1 (stereo not drawn) [Compound 6, mactanamide]

### Response
1. > 100 µM
2. 75.7 µM
3. > 100 µM

### Prompt For the molecule shown here, COc1cc(O)c(C)c2c1COC(C)C2 (stereo not drawn) [Compound 3, 8-methoxy-3,5-dimethylisochroman-6-ol] , give the reported IC50 at 24 h.
### Response > 100 µM

Every entry's value here was drawn from paper PMC6265791.
